Molecular target: Nuclear receptor subfamily 1 group I member 2 (Homo sapiens) (UniProt O75469)
Sequence (O75469 whole entry, looked up): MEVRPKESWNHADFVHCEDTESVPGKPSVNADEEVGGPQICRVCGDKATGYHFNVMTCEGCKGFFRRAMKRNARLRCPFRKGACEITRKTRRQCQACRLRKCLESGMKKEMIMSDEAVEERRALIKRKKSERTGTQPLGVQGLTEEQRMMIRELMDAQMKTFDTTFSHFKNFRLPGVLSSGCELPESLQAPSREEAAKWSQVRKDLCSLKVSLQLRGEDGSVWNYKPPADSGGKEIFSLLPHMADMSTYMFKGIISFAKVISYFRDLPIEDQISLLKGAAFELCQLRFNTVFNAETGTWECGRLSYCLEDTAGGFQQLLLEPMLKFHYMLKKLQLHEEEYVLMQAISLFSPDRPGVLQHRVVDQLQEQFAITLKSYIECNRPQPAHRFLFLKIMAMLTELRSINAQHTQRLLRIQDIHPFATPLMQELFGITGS
Assay: Human pregnane X receptor (PXR) small molecule agonists, qHTS assay (AID 1346982); further: nearly all actives have a fitted effect of over 35% in size
Conditions: PXR-Luc HepG2, CYP3A4 luciferase reporter, 24 h; series mostly up to 92.4 µM
Results filed as inconclusive are left out. Calls of active or inactive are those of the source. The call rests on the fitted dose curve; in most records, active means well fitted activation curve with a large enough effect in the repeat runs; inconclusive means weak or mixed curves; inactive means no such curve, though single readings can be large or run the other way.
// classify into active, inactive

Which outcome did this test record for the compound `CC1=CC(=O)CCC1` ?
inactive

Further, for `COc1cc(CCC(C)=O)ccc1O` ?
inactive

Now consider `CCCCCOC(=O)Nc1nc(=O)n([C@@H]2O[C@H](C)[C@@H](O)[C@H]2O)cc1F` .
inactive

Also `CCCCCC[C@@H](CCC)C(=O)O` , if possible.
inactive

Param item: OC1OC[C@@H](O)[C@H](O)[C@H]1O (stereo partly drawn)
inactive

Next compound: `CC(C)c1ccc2oc3nc(N)c(C(=O)O)cc3c(=O)c2c1`
active

Param item: `C[N+](C)(C)CC[N+]1(C)Cc2c(Cl)c(Cl)c(Cl)c(Cl)c2C1`
inactive

Next entry: `CC1(C)SC(C)(C)SC(C)(C)S1`
inactive

Record: `CCCCCCC(=O)OCC`
inactive

Follow-up entry: CC12CCC(CC1=O)C2(C)C (stereo not drawn)
inactive

Would you mind doing `CC(C)=CCC/C(C)=C/C(=O)O` as well?
inactive

How about this compound: `CCO[Si](C)(OCC)OCC`
inactive

Another: `Nc1nc2c(ncn2CCC(CO)CO)c(=O)[nH]1`
inactive

Queued: `O=C1OC(=O)c2cc([N+](=O)[O-])ccc21`
inactive

CCCC(C)C(=O)O (stereo not drawn) ?
inactive

Ok, now `CC(C)c1cccc(O)c1`
inactive

Thanks! And C=C(C)C1CC=C(C)C(O)C1 (stereo not drawn) ?
active

How about `NCCN1CCNC1=O` ?
inactive

Now consider `C[C@H]1O[C@@H](n2cc(F)c(=O)[nH]c2=O)[C@H](O)[C@@H]1O` .
inactive

Ok, now `CCc1cc(S(=O)(=O)O)c2cc(C(C)C)cccc1-2`
inactive

And CC(CCO)CCCC(C)(C)O (stereo not drawn) ?
inactive

Cool, now Cc1c(F)cc2c(=O)c(C(=O)O)cn3c2c1CCC3C (stereo not drawn)
inactive

Okay, and `OCC(CO)(CO)COCC(CO)(CO)CO` ?
inactive

Now consider `COc1cccc(OC)c1` .
inactive

Queued: CCC(C)(C)C1CCC(OC)CC1 (stereo not drawn)
active

Check `c1cc(CN2CCCCC2)cc(OCCCNc2nc3ccccc3s2)c1` too.
active

What would you report for `OCCN1C[C@H](O)[C@@H](O)[C@H](O)[C@H]1CO` ?
inactive

Follow-up item: `CC1CCN(CCCC(=O)c2ccc(F)cc2)CC1`
inactive

Try the compound CC(C)CCCC(C)NCCC(C)C (stereo not drawn)
inactive

What do you have for CCCCOCC(C)OCC(C)O (stereo not drawn) ?
active

Moving on to the next compound: `COC(=O)[C@H]1[C@H]2C[C@@H]3c4[nH]c5cc(OC)ccc5c4CCN3C[C@H]2C[C@@H](OC(=O)COc2ccc(OC)cc2)[C@@H]1OC`
inactive

Entry `CC(C)COC(=O)C(C)C` please
inactive

Also Cc1cc(C)cc(OCC2CNC(=O)O2)c1 (stereo not drawn) ?
inactive

What do you have for `O=C(O)Cc1cc(I)c(Oc2cc(I)c(O)c(I)c2)c(I)c1` ?
active

Okay, and `C=CCn1c(=O)n([C@@H]2O[C@H](CO)[C@@H](O)[C@H]2O)c2nc(N)[nH]c(=O)c21` ?
inactive

O=C(O)C(O)[C@H](O)[C@@H](O)[C@H](O)[C@H](O)CO (stereo partly drawn) ?
inactive

Subsequent entry: `O=Cc1ccccc1[N+](=O)[O-]`
inactive

Another compound to check: `COc1cc(C)cc(O)c1`
inactive

// repeat for `Nc1cc(C(Cl)=C(Cl)Cl)c(S(N)(=O)=O)cc1S(N)(=O)=O` and report
inactive

Note, next up: `Cc1nc(-c2ccc(OCC(C)C)c(C#N)c2)sc1C(=O)O`
active

Now try `CC(C)(O)c1ccccc1` .
inactive

And `N#CC1(O)CCCCC1` ?
active

Item: NC(=O)CCCCC1CCSS1 (stereo not drawn)
inactive

Please do the same for `NC(=O)c1ncn([C@@H]2O[C@H](CO)[C@@H](O)[C@H]2O)c1O` as well.
inactive

And for `CNc1ncnc2nc[nH]c12` ?
active

Same thing, different compound: `CCOC(=O)Nc1ccc2c(c1)N(C(=O)CCN1CCOCC1)c1ccccc1S2`
active

// repeat for CC(=O)NC(Cc1ccccc1)C(=O)O (stereo not drawn) and report
inactive

Subsequent entry: `NC(N)=NS(=O)(=O)c1ccc(N)cc1`
inactive

Try the compound CC1=CCC2C(C1)C2(C)C (stereo not drawn)
active

Moving on to the next compound: `NC1CCN(c2cccc(Cl)n2)CC1`
inactive

Would you mind doing `COc1ccc(COC=O)cc1` as well?
inactive

Now consider `Fc1ccccc1-c1ccccc1` .
inactive

Same again, this time with `CCCCCCCCCCCCCCC`
inactive

Data origin, for the record: PubChem BioAssay (Tox21)
